Tested on: RAW 264.7 cells
Assay: Cell viability (MTT) in the presence of LPS
Settings: 50 μM, RAW 264.7, 100 ng/mL LPS, 24 h, MTT
parameter_measured: Cell viability (% of control)

Prompt line: Field request: Cell viability (% of control) | item: COc1ccc([C@@H]2CC(=O)c3ccc(OC)cc3O2)cc1
Response line: 82.6 ± 2.7 % of control

Prompt line: Same question for C=C1C[C@@]23CC[C@H]4[C@@](C)(CCC[C@@]4(C)C(=O)O)[C@@H]2CC[C@@H]1C3 please.
Response line: 82.9 ± 1.2 % of control

Prompt line: Same question for CC1(C)CC[C@]2(C)CC=C3[C@]4(C)CC[C@H]5C(C)(C)[C@@H](O)CC[C@]5(C)[C@H]4CC[C@@]3(C)[C@@H]2C1 please.
Response line: 88.7 ± 1.8 % of control

* * *

System: RAW 264.7 cells
Test: Cell viability (MTT) in the presence of LPS
Conditions: 100 μM, RAW 264.7, 100 ng/mL LPS, 24 h, MTT
parameter_measured: Cell viability (% of control)

Prompt line: Field request: Cell viability (% of control) | item: C[C@@]12CCC[C@](C)(C=O)C1CCC13CC(CCC12)C(C(=O)O)C3 (stereo partly drawn) [Compound 5, 16α-hydro-19-al-ent-kauran-17-oic acid]
Response line: 80.2 ± 5.7 % of control

Prompt line: Same question for CC(=O)OCC1CC23CCC4[C@@](C)(CCC[C@]4(C)C(=O)O)C2CCC1C3 (some centres unmarked) please.
Response line: 83.7 ± 1.6 % of control

Prompt line: Same question for CC1(C)CC[C@]2(C)CC=C3[C@]4(C)CC[C@H]5C(C)(C)[C@@H](O)CC[C@]5(C)[C@H]4CC[C@@]3(C)[C@@H]2C1 please.
Response line: 81.4 ± 2.3 % of control

Prompt line: Same question for C[C@@]12CCC[C@](C)(C(=O)O)C1CCC13CC(CCC12)C(C(=O)O)C3 (stereo partly drawn) [Compound 8, 16α-hydro-ent-kauran-17,19-dioic acid] please.
Response line: 82.4 ± 1.2 % of control

Prompt line: Same question for C=C1C[C@@]23CC[C@H]4[C@@](C)(CCC[C@@]4(C)C(=O)O)[C@@H]2CC[C@@H]1C3 please.
Response line: 65.7 ± 8.6 % of control

Prompt line: Same question for CC[C@H](CC[C@@H](C)[C@H]1CC[C@H]2[C@@H]3CC=C4C[C@@H](O)CC[C@]4(C)[C@H]3CC[C@]12C)C(C)C please.
Response line: 55.8 ± 2.7 % of control

Prompt line: Same question for CC[C@H](CC[C@@H](C)[C@H]1CC[C@H]2[C@@H]3C[C@@H](O)C4=CC(=O)CC[C@]4(C)[C@H]3CC[C@]12C)C(C)C [Compound 6, 6β-hydroxystigmast-4-en-3-one] please.
Response line: 81.3 ± 2.8 % of control

Prompt line: Same question for COc1ccc([C@@H]2CC(=O)c3ccc(OC)cc3O2)cc1 please.
Response line: 76.2 ± 1.1 % of control

* * *

Test system: LPS-induced iNOS-dependent NO production in RAW 264.7 cells
Assay: Inhibition of LPS-induced iNOS-dependent NO production (Griess nitrite assay)
Type: cell-based, murine
Conditions: Mus musculus, RAW264.7; 50 μM, RAW 264.7, 100 ng/mL LPS, 24 h; read-out: NO inhibition (% of control) (converted)
For each of the molecules below, state its inhibition at 50 µM.
Write the value in % as a bare number.

Prompt line: # returns recorded inhibition at 50 µM (system: LPS-induced iNOS-dependent NO production in RAW 264.7 cells) for C=C1C[C@@]23CC[C@H]4[C@@](C)(CCC[C@@]4(C)C(=O)O)[C@@H]2CC[C@@H]1C3
Response line: 50

Prompt line: Same question for CC(=O)OCC1CC23CCC4[C@@](C)(CCC[C@]4(C)C(=O)O)C2CCC1C3 (stereo partly shown) please.
Response line: 47.7

Prompt line: Same question for CC[C@H](CC[C@@H](C)[C@H]1CC[C@H]2[C@@H]3C[C@@H](O)C4=CC(=O)CC[C@]4(C)[C@H]3CC[C@]12C)C(C)C [Compound 6, 6β-hydroxystigmast-4-en-3-one] please.
Response line: 49.5

Prompt line: Same question for C[C@@]12CCC[C@](C)(C=O)C1CCC13CC(CCC12)C(C(=O)O)C3 (stereo partly drawn) [Compound 5, 16α-hydro-19-al-ent-kauran-17-oic acid] please.
Response line: 51.4

Prompt line: Same question for CC1(C)CC[C@]2(C)CC=C3[C@]4(C)CC[C@H]5C(C)(C)[C@@H](O)CC[C@]5(C)[C@H]4CC[C@@]3(C)[C@@H]2C1 please.
Response line: 21.6

Prompt line: Same question for COc1ccc([C@@H]2CC(=O)c3ccc(OC)cc3O2)cc1 please.
Response line: 42.9

Prompt line: Same question for C[C@@]12CCC[C@](C)(C(=O)O)C1CCC13CC(CCC12)C(C(=O)O)C3 (stereo partly drawn) [Compound 8, 16α-hydro-ent-kauran-17,19-dioic acid] please.
Response line: 48.2

* * *

Tested on: RAW 264.7 cells
Experiment: Cell viability (MTT) in the presence of LPS
Settings: 12.5 μM, RAW 264.7, 100 ng/mL LPS, 24 h, MTT
For each of the compounds below, state its Cell viability (% of control).

Prompt line: Field request: Cell viability (% of control) | item: C[C@@]12CCC[C@](C)(C=O)C1CCC13CC(CCC12)C(C(=O)O)C3 (stereo partly drawn) [Compound 5, 16α-hydro-19-al-ent-kauran-17-oic acid]
Response line: 98.9 ± 5.2 % of control

Prompt line: Same question for CC1(C)CC[C@]2(C)CC=C3[C@]4(C)CC[C@H]5C(C)(C)[C@@H](O)CC[C@]5(C)[C@H]4CC[C@@]3(C)[C@@H]2C1 [Compound 3, taraxerol] please.
Response line: 93.5 ± 1.8 % of control

Prompt line: Same question for COc1ccc([C@@H]2CC(=O)c3ccc(OC)cc3O2)cc1 [Compound 9, (2S)-di-O-methylquiritigenin] please.
Response line: 99.9 ± 4.8 % of control

Prompt line: Same question for CC[C@H](CC[C@@H](C)[C@H]1CC[C@H]2[C@@H]3C[C@@H](O)C4=CC(=O)CC[C@]4(C)[C@H]3CC[C@]12C)C(C)C [Compound 6, 6β-hydroxystigmast-4-en-3-one] please.
Response line: 94.8 ± 3.1 % of control

Prompt line: Same question for CC[C@H](CC[C@@H](C)[C@H]1CC[C@H]2[C@@H]3CC=C4C[C@@H](O)CC[C@]4(C)[C@H]3CC[C@]12C)C(C)C [Compound 4, β-sitosterol] please.
Response line: 82.8 ± 2.7 % of control

Prompt line: Same question for C[C@@]12CCC[C@](C)(C(=O)O)C1CCC13CC(CCC12)C(C(=O)O)C3 (stereo partly drawn) [Compound 8, 16α-hydro-ent-kauran-17,19-dioic acid] please.
Response line: 98.4 ± 3.2 % of control

Prompt line: Same question for CC(=O)OCC1CC23CCC4[C@@](C)(CCC[C@]4(C)C(=O)O)C2CCC1C3 (stereo partly drawn) [Compound 7, 17-acetoxy-16β-ent-kauran-19-oic acid] please.
Response line: 98.6 ± 3.1 % of control

Prompt line: Same question for C=C1C[C@@]23CC[C@H]4[C@@](C)(CCC[C@@]4(C)C(=O)O)[C@@H]2CC[C@@H]1C3 [Compound 2, kaurenoic acid] please.
Response line: 98.0 ± 2.2 % of control

* * *

System: LPS-induced iNOS-dependent NO production in RAW 264.7 cells
Assay: Inhibition of LPS-induced iNOS-dependent NO production (Griess nitrite assay)
Type: cell-based, murine
Conditions: 12.5 μM, RAW 264.7, 100 ng/mL LPS, 24 h, nitrite by Griess; in µM (unit assumed)
parameter_measured: NO level

Prompt line: Field request: NO level | item: CC[C@H](CC[C@@H](C)[C@H]1CC[C@H]2[C@@H]3C[C@@H](O)C4=CC(=O)CC[C@]4(C)[C@H]3CC[C@]12C)C(C)C [Compound 6, 6β-hydroxystigmast-4-en-3-one]
Response line: 37.0 ± 1.8

Prompt line: Same question for CC1(C)CC[C@]2(C)CC=C3[C@]4(C)CC[C@H]5C(C)(C)[C@@H](O)CC[C@]5(C)[C@H]4CC[C@@]3(C)[C@@H]2C1 [Compound 3, taraxerol] please.
Response line: 38.5 ± 2.3

Prompt line: Same question for CC[C@H](CC[C@@H](C)[C@H]1CC[C@H]2[C@@H]3CC=C4C[C@@H](O)CC[C@]4(C)[C@H]3CC[C@]12C)C(C)C [Compound 4, β-sitosterol] please.
Response line: 38.4 ± 0.7

* * *

Tested on: RAW 264.7 cells
Experiment: Cell viability (MTT) in the presence of LPS
Settings: 50 μM, RAW 264.7, 100 ng/mL LPS, 24 h, MTT
parameter_measured: Cell viability (% of control)

Prompt line: Field request: Cell viability (% of control) | item: C[C@@]12CCC[C@](C)(C(=O)O)C1CCC13CC(CCC12)C(C(=O)O)C3 (stereo partly drawn) [Compound 8, 16α-hydro-ent-kauran-17,19-dioic acid]
Response line: 88.6 ± 2.6 % of control

Prompt line: Same question for C[C@@]12CCC[C@](C)(C=O)C1CCC13CC(CCC12)C(C(=O)O)C3 (stereo partly drawn) [Compound 5, 16α-hydro-19-al-ent-kauran-17-oic acid] please.
Response line: 95.9 ± 8.6 % of control

Prompt line: Same question for CC[C@H](CC[C@@H](C)[C@H]1CC[C@H]2[C@@H]3C[C@@H](O)C4=CC(=O)CC[C@]4(C)[C@H]3CC[C@]12C)C(C)C [Compound 6, 6β-hydroxystigmast-4-en-3-one] please.
Response line: 83.5 ± 3.0 % of control

Prompt line: Same question for CC[C@H](CC[C@@H](C)[C@H]1CC[C@H]2[C@@H]3CC=C4C[C@@H](O)CC[C@]4(C)[C@H]3CC[C@]12C)C(C)C please.
Response line: 65.3 ± 2.3 % of control

Prompt line: Same question for CC(=O)OCC1CC23CCC4[C@@](C)(CCC[C@]4(C)C(=O)O)C2CCC1C3 (some centres unmarked) please.
Response line: 92.5 ± 2.8 % of control

src = paper PMC6270106
